tested on: Hela; assay: Proliferation inhibition, non-Wnt mutant control cell line Hela; assay type: cell-based; conditions: Homo sapiens, Wnt-independent control cell line, 96 hours, read-out: Antiproliferative IC50 Hela
Assay Metric: IC50 (µM)

1) C[C@H]1Cn2ccc3nc(NCc4cnn(Cc5ccc(F)cc5)c4)nc(c32)N1CCO | 7.21
2) C[C@H]1Cn2ccc3nc(NCc4cnn(CC5CCC(F)(F)CC5)c4)nc(c32)N1C | 4.9
3) C[C@H]1Cn2ccc3nc(NCc4cnn(Cc5ccc(F)cc5)c4)nc(c32)N1C | 4.17
4) C[C@H]1Cn2ccc3nc(NCc4ccc(Oc5ccc(C(F)(F)F)nc5)nc4)nc(c32)N1C | 2.92
5) CN1c2nc(NCc3cnn(Cc4ccc(C(F)(F)F)nc4)c3)nc3ccn(c23)CC1CC(F)(F)F (stereo not shown) | 2.92
6) CN1c2nc(NCc3cnn(Cc4ccc(C(F)(F)F)nc4)c3)nc3ccn(c23)C[C@@H]1C1CC1 | 3.86

###

tested on: Colo205; assay: Proliferation inhibition, Wnt mutant cell line Colo205; format: cell-based; conditions: Homo sapiens, COLO 205; Colo205, Wnt pathway-dependent, 96 hours; read-out: Antiproliferative IC50 Colo205
Assay Metric: IC50

1. C[C@H]1C(=O)N2CCCc3nc(NCc4cnc(Oc5ccc(C(F)(F)F)nc5)c(C#N)c4)nc(c32)N1C | 24.6 nM
2. CN1c2nc(NCc3ccc(Oc4ccc(C(F)(F)F)nc4)nc3)nc3c2N(CCC3)C(=O)[C@@H]1C(F)(F)F | 63 nM
3. [2H]c1cc2nc(NCc3cnn(Cc4ccc(C(F)(F)F)nc4)c3)nc3c2n1C[C@H](C)N3C | 4.8 nM
4. CN1c2nc(NCc3ccc(Oc4cnc(C(F)(F)F)nc4)nc3)nc3c2N(CCC3)C(=O)[C@@H]1c1cccc(F)c1 | 66 nM
5. CO[C@H](C)[C@H]1C(=O)N2CCCc3nc(NCc4ccc(Oc5cnc(C(F)(F)F)nc5)nc4)nc(c32)N1C | 27 nM
6. COCC[C@@H]1C(=O)N2CCCc3nc(NCc4ccc(Oc5ccc(C(F)(F)F)nc5)nc4)nc(c32)N1C | 53 nM
7. COC[C@H]1C(=O)N2CCCc3nc(NCc4ccc(Oc5ccc(C(F)(F)F)nc5)nc4)nc(c32)N1C | 30 nM

###

test system: Colo205; assay: Proliferation inhibition, Wnt mutant cell line Colo205; type: cell-based; conditions: Homo sapiens, COLO 205; Colo205, Wnt pathway-dependent, 96 hours; read-out: Antiproliferative IC50 Colo205
pIC50: −log10 of the molar value.
Let's look at some molecules and their measured pIC50.
Assay Metric: pIC50

1) COC[C@H]1Cn2ccc3nc(NCc4ccc(C(F)(F)F)nc4)nc(c32)N1C [86 (W135)] | 7.10
2) CN1c2nc(NCc3ccc(Oc4cnc(C(F)(F)F)nc4)nc3)nc3c2N(CCC3)C(=O)[C@@H]1CF [150 (W301)] | 7.62
3) CN1c2nc(NCc3ccc(Oc4cc(C(F)(F)F)nn4C)nc3)nc3c2N(CCC3)C(=O)[C@@H]1CO [222 (W402)] | 7.21
4) C[C@H]1C(=O)N2CCCc3nc(NCc4ccc(Oc5cnc(C(F)(F)F)nc5)nc4)nc(c32)N1C [91 (W221)] | 7.51
5) CN1c2nc(NCc3ccc(Oc4cc(C(F)(F)F)nn4C)nc3)nc3c2N(CCC3)C(=O)[C@]1(C)CO [223 (W403)] | 7.46

###

test system: Colo205; experiment: Proliferation inhibition, Wnt mutant cell line Colo205; format: cell-based; details: Homo sapiens, COLO 205; Colo205, Wnt pathway-dependent, 96 hours; read-out: Antiproliferative IC50 Colo205
pIC50: −log10 of the molar value.
Assay Metric: pIC50

1. C[C@H]1Cn2ccc3nc(NCc4ccc(Oc5ccccc5)cc4)nc(c32)N1C [67 (W46)] | 7.22
2. CN1c2nc(NCc3ccc(Oc4ccc(C(F)(F)F)nc4)nc3)nc3c2N(CCC3)C(=O)[C@]1(C)CO [133 (W377)] | 7.46
3. CCN1c2nc(NCc3ccc(Oc4cnc(C(F)(F)F)nc4)nc3)nc3c2N(CCC3)C(=O)[C@@H]1C [168 (W298)] | 7.54
4. CN1c2nc(NCc3cnn(Cc4ccc(C(F)(F)F)nc4)c3)nc3ccn(c23)C[C@@H]1CO [71 (W56)] | 7.87
5. COC[C@H]1CN(C)c2nc(NCc3cnn(Cc4ccc(C(F)(F)F)nc4)c3)nc3cc(C)n1c23 [Example 25] | 7.36
6. C[C@H]1Cn2ccc3nc(NCc4ccc(OCC(F)(F)F)nc4)nc(c32)N1C [82 (W107)] | 7.91
7. CN1c2nc(NCc3ccc(Oc4ccc(C(F)(F)F)nc4)nc3)nc3c2N(CCC3)C(=O)[C@]12CCOC2 [209 (W405)] | 7.52
8. CN1c2nc(NCc3ccc(Oc4cnc(C(F)(F)F)nc4)nc3)nc3c2N(CCC3)C(=O)[C@@H]1c1ccccc1 [172 (W305)] | 7.76
9. C[C@H]1Cn2ccc3nc(NCc4cnn(CC5CCC(F)(F)CC5)c4)nc(c32)N1C [83 (W116)] | 8.29
10. CN1c2nc(NCc3ccc(Oc4cc(C(F)(F)F)nn4C4CC4)nc3)nc3c2N(CCC3)C(=O)[C@@H]1CO [205 (W379)] | 7.83
11. C[C@H]1CN(C2CC2)c2nc(NCc3cnn(Cc4ccc(C(F)(F)F)nc4)c3)nc3ccn1c23 [90 (W152)] | 7.38
12. CCOC[C@H]1C(=O)N2CCCc3nc(NCc4ccc(Oc5cnc(C(F)(F)F)nc5)nc4)nc(c32)N1C [155 (W347)] | 7.06
13. CC[C@H]1C(=O)N2CCCc3nc(NCc4ccc(Oc5ccc(C(F)(F)F)nc5)nc4)nc(c32)N1C [119 (W255)] | 8.12
14. CC[C@H]1C(=O)N2CCCc3nc(NCc4ccc(Cn5ccc(C(F)(F)F)n5)nc4)nc(c32)N1C [146 (W273)] | 7.51
15. CC[C@H]1C(=O)N2CCCc3nc(NCc4ccc(Oc5cnc(C(F)(F)F)nc5)nc4)nc(c32)N1C [161 (W269)] | 8.34
16. FC(F)(F)c1ccc(Cn2cc(CNc3nc4c5c(ccn5C[C@@H]5COCCN45)n3)cn2)cn1 [Example 28] | 7.54

###

system: Colo205; assay: Proliferation inhibition, Wnt mutant cell line Colo205; assay type: cell-based; conditions: Homo sapiens, COLO 205; Colo205, Wnt pathway-dependent, 96 hours; read-out: Antiproliferative IC50 Colo205
Catalogue of molecules with associated IC50
Assay Metric: IC50 (nM)

1. C[C@H]1C(=O)N2CCCc3nc(NCc4cnn(Cc5ccc(F)cc5)c4)nc(c32)N1C [Example 15] | 41
2. COC[C@H]1Cn2ccc3nc(NCc4cnn(Cc5ccc(C(F)(F)F)nc5)c4)nc(c32)N1C [68 (W49)] | 8.2
3. C[C@@H]1CN(C)c2nc(NCc3cnn(Cc4ccc(C(F)(F)F)nc4)c3)nc3ccn1c23 [Example 27] | 76
4. [2H]C([2H])([2H])OC[C@H]1C(=O)N2CCCc3nc(NCc4ccc(Oc5cnc(C(F)(F)F)nc5)nc4)nc(c32)N1C([2H])([2H])[2H] [132 (W383)] | 25
5. CN1c2nc(NCc3ccc(Oc4cnc(C(F)(F)F)nc4)nc3)nc3c2N(CCC3)C(=O)[C@@]12CCOC2 [224 (W406)] | 63
6. CC(C)[C@H]1C(=O)N2CCCc3nc(NCc4ccc(Oc5cnc(C(F)(F)F)nc5)nc4)nc(c32)N1C [159 (W259)] | 4.6
7. COCCC1C(=O)N2CCCc3nc(NCc4ccc(Oc5ccc(C(F)(F)F)nc5)nc4)nc(c32)N1C (stereo not drawn) [213 (W355)] | 53
8. CN1c2nc(NCc3ccc(Oc4ccc(C(F)(F)F)nc4)nc3)nc3c2N(CCC3)C(=O)[C@@H]1C1CCOCC1 [219 (W338)] | 10
9. CN1c2nc(NCc3ccc(Oc4cnc(C(F)(F)F)nc4)nc3)nc3c2N(CCC3)C(=O)[C@]1(C)CO [140 (W376)] | 49
10. CCn1nc(C(F)(F)F)cc1Oc1ccc(CNc2nc3c4c(n2)N(C)[C@@H](COC)C(=O)N4CCC3)cn1 [202 (W361)] | 5
11. C[C@H]1Cn2ccc3nc(NCc4cnn(CC(F)(F)F)c4)nc(c32)N1C [80 (W104)] | 24.6
12. [2H]C([2H])([2H])N1c2nc(NCc3ccc(Oc4cnc(C(F)(F)F)nc4)nc3)nc3c2N(CCC3)C(=O)[C@@H]1COC [178 (W333)] | 19.2
